Target: T1, human GFRα1 expressed with only a C-terminal human Fc tag (human)
T1 construct: also called hGFRα1-hFc
T1 sequence (chain, as listed by the source limits assumed): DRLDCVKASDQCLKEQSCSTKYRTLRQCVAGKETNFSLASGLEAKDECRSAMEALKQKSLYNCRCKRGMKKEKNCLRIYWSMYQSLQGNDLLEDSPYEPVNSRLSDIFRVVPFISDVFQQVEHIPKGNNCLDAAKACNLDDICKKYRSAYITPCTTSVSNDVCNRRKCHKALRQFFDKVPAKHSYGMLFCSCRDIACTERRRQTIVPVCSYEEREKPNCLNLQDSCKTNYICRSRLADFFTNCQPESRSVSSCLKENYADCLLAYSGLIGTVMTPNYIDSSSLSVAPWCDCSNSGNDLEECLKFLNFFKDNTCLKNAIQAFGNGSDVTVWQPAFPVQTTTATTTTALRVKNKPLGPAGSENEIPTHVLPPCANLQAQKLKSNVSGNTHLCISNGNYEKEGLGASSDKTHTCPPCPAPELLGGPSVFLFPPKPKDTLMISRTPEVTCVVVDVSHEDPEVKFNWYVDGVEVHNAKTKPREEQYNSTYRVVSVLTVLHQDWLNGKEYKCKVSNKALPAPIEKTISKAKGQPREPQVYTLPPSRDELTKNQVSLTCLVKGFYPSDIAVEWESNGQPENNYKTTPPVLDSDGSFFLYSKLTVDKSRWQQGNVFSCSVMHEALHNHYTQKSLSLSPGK
Assay: BLI Octet, antigen on anti-hFc tips, 100 ug/mL Ab
readout_type: Bound (nm)
Answers are plain numbers, in nm.

Give the reported value of Bound (nm) for this record: H4H2292S (antibody, human IgG4, V domains shown, human IgG4 Fc (H4H)) VH: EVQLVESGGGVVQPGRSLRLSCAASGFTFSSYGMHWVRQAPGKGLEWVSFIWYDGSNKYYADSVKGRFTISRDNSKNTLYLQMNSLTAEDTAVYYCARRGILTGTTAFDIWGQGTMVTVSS VL: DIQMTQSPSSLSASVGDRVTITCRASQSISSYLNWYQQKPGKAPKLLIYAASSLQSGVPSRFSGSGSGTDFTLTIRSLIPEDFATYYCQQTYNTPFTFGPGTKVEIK
0.05
